src = PubChem BioAssay

Form field: fluorescence slope (one value per entry).
# EXPERIMENTAL TARGET: Voltage-gated potassium channel subunit beta-2 (Rattus norvegicus) (UniProt P62483)
# Sequence (P62483 whole entry, looked up): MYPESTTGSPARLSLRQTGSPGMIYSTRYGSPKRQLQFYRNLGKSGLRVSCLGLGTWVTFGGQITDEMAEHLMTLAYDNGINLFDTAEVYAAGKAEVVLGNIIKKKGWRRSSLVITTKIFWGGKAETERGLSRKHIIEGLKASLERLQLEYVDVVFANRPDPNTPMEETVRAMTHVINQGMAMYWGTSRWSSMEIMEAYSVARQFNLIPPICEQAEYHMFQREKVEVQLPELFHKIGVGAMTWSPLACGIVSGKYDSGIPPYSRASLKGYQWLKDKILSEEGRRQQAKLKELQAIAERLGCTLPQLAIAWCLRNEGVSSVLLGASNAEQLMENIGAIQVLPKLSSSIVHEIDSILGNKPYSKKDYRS
# METHOD: inhibitors of rat Kvbeta2 reductase activity – biochemical, NADPH fluorescence, primary screen (AID 622);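 also: slope of raw intensity against log time taken from 70 to 1610 s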
# CONDITION NOTES: recombinant KvBeta, 4-cyanobenzaldehyde reduction, at 10 µM, stronger effect = higher value
Number only, please.

Nc1nc2n(n1)C(c1c(F)cccc1Cl)CC(c1ccc(F)cc1)N2 (configuration not stated) | -0.455
CCOC(=O)CN1CC23C=CC(O2)C(C(=O)Nc2ccc(OC)cc2OC)C3C1=O (configuration not stated) | -0.574
Cn1nnnc1SCC(=O)N1CCN(c2cccc(Cl)c2)CC1 | -0.619
CCc1[nH]nc2c1C(c1cccc(OC(=O)N3CCOCC3)c1)C(C#N)=C(N)O2 (configuration not stated) | -0.563
CC(=O)NC(Cc1ccc(C)cc1)C(=O)NC1CCN(C(=O)c2cnccn2)CC1 (configuration not stated) | -0.421

In plain terms, `COc1cccc(S(=O)(=O)Nc2ccc(C(=O)N3CCN(C(=O)c4ccco4)CC3)cc2)c1` has a documented fluorescence slope of -0.507

In plain terms, CC(C)Oc1ccc(N2CC(C(=O)Nc3ccccc3F)CC2=O)cc1 (configuration not stated) has a documented fluorescence slope of -0.438

In plain terms, `CCOc1ccc(N(CC(=O)NCc2ccco2)S(=O)(=O)c2ccc(OC)c(OC)c2)cc1` has a documented fluorescence slope of -0.409

In plain terms, `Cc1cc(C)n(CCc2nc(-c3cccs3)cs2)n1` has a documented fluorescence slope of -0.603

In plain terms, `CS(=O)(=O)N(CC(=O)N1CCc2ccccc2C1)c1ccc2c(c1)OCO2` has a documented fluorescence slope of -0.481

In plain terms, `COc1ccc(Nc2nc(-c3sc(N)nc3C)cs2)cc1` has a documented fluorescence slope of -0.376

In plain terms, `Cc1noc(C)c1COc1cccc(C(=O)Nc2ccc(C#N)cc2)c1` has a documented fluorescence slope of -0.455

In plain terms, `COc1cccc(-n2c(SCC(=O)N3CCCC3)nc3c([nH]c4ccccc43)c2=O)c1` has a documented fluorescence slope of -0.544

In plain terms, COc1ccc(C2C(C(=O)N3CCC(C)CC3)c3ccccc3C(=O)N2C)cc1 (configuration not stated) has a documented fluorescence slope of -0.54

In plain terms, `COc1ccc(-n2c(SCC(=O)c3c(N)n(C)c(=O)n(C)c3=O)nc3ccccc32)cc1` has a documented fluorescence slope of -0.581

In plain terms, `CC(C)CCNC(=O)NC(=O)COc1ccccc1C#N` has a documented fluorescence slope of -0.586

In plain terms, `C/C(N)=C(/C#N)C(=O)CSc1nnc(Nc2cccc(C)c2)s1` has a documented fluorescence slope of -0.492

In plain terms, `CCCCn1nnc(NC(=O)Cc2ccc(Cl)cc2)n1` has a documented fluorescence slope of -0.44

In plain terms, `CCOc1ccc2nc(NC(=O)CSc3nnnn3C3CCCCC3)sc2c1` has a documented fluorescence slope of -0.393

In plain terms, `O=C(O)CN1C(=O)C2(OCCCO2)c2ccccc21` has a documented fluorescence slope of -0.538

In plain terms, `O=C(c1ccccc1Cl)N1CCc2ccccc2C1` has a documented fluorescence slope of -0.478

In plain terms, COC(=O)C1=C(C)Nc2nnnn2C1c1cccs1 (configuration not stated) has a documented fluorescence slope of -0.599

In plain terms, O=S(=O)(NC1CCCCC1NS(=O)(=O)c1ccc(F)cc1)c1ccc(F)cc1 (configuration not stated) has a documented fluorescence slope of -0.503
